Target: Recombinant human his-tagged IGF 1R extracellular domain protein (human) (UniProt P08069)
Experiment: SPR, captured antibody, dissociation at pH 6
A collection of binders and their measured koff
All answers are understood in s⁻¹, so give the number only.

BINDER	MEASUREMENT UNIT	koff
VRDN-03110 (antibody, V domains shown) VH: QVQLVESGGGVVQPGRSLRLSCAASGFTFSDYTMHWVRQAPGKGLEWVAIIWFDGSSKYYADSVKGRFTISRDNSKNTLYLQMNSLRAEDTAVYYCARELGRRYFDIWGRGTLVTVSS VL: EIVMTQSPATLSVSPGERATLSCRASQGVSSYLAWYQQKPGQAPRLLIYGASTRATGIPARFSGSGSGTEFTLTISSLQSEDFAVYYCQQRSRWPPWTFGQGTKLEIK	s⁻¹	0.000378

Q: Identify measured koff associated with VRDN-03104 (antibody, V domains shown) VH: QVQLVESGGGVVQPGRSLRLSCAASGFTFSDHYMDWVRQAPGKGLEWVAIIWFDGSSKYYADSVKGRFTISRDNSKNTLYLQMNSLRAEDTAVYYCARELGRRYFDIWGRGTLVTVSS VL: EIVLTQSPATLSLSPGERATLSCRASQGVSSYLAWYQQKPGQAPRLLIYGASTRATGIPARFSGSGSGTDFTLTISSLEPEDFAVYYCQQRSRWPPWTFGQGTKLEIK
Ans: 0.000283

Q: Identify measured koff associated with VRDN-03113 (antibody, V domains shown) VH: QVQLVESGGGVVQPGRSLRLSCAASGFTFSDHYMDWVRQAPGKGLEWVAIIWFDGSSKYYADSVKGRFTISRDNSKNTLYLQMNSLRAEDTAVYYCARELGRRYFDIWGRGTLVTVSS VL: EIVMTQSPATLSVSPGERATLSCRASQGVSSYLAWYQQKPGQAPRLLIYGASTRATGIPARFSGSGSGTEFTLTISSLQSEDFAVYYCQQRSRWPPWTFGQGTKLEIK
Ans: 0.00191

Q: Identify measured koff associated with VRDN-03103 (antibody, V domains shown) VH: QVQLVESGGGVVQPGRSLRLSCAASGFTFSDYTMHWVRQAPGKGLEWVAIIWFDGSSKYYPGSVKGRFTISRDNSKNTLYLQMNSLRAEDTAVYYCARELGRRYFDIWGRGTLVTVSS VL: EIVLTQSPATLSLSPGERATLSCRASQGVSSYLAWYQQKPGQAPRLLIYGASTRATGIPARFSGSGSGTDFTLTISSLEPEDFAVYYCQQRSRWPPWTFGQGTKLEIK
Ans: 0.00216

Q: Identify measured koff associated with VRDN-03038 (antibody, V domains shown) VH: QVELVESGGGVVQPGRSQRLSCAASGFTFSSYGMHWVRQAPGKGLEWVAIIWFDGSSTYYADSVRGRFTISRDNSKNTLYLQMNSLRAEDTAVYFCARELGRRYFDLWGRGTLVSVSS VL: EIVLTQSPATLSLSPGERATLSCHASQSVSSYLAWYQQKPGQAPRLLIYDASKRATGIPARFSGSGSGTDFTLTISSLEPEDFAVYYCQQRSKWPPWTFGQGTKVESK
Ans: 0.000115

Q: Identify measured koff associated with VRDN-03109 (antibody, V domains shown) VH: QVQLVESGGGVVQPGRSLRLSCAASGFTFSSYSMHWVRQAPGKGLEWVAIIWFDGSSKYYPGSVKGRFTISRDNSKNTLYLQMNSLRAEDTAVYYCARELGRRYFDIWGRGTLVTVSS VL: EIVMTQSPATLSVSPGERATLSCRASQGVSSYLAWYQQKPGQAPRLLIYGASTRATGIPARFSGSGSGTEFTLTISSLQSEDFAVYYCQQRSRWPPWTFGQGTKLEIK
Ans: 0.00049
